Values compiled from the supplement of paper PMC10126150.

- Test system: ATP;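 further: ATP exposure 15 min at 22 °C before imaging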
- protocol.details: switch fluorescence ratio, 500 uM ATP over buffer (Cy3 cluster intensity, sum of 5 cycles each) (fold (ratio)); higher = stronger signal-on switching upon ATP binding; sequences stand for … in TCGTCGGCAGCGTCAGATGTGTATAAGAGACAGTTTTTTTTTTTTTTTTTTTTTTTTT…TC
- test.conditions: aptamer strand: ATP DNA aptamer (quencher-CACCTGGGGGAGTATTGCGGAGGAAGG + anchor), 100 nM annealed; ATP concentration: 500 uM
Each record here notes measured switch fluorescence ratio.
measured.attribute: switch fluorescence ratio

# monomer.sequence, target.or.test.system, assay.result
data = [
    ("TTTATATTAG", "ATP", 0.989),
    ("TGTCGGTTTT", "ATP", 0.996),
    ("AGGATAGATA", "ATP", 1),
    ("GATAATTGGG", "ATP", 0.999),
    ("GGAGCCGGGC", "ATP", 1.01),
    ("GGGTTTGGGA", "ATP", 0.99),
    ("TAAAAGTTTT", "ATP", 1.01),
    ("TAGATAATGG", "ATP", 1.02),
]

---

- Test system: ATP;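 further: ATP exposure 15 min at 22 °C before imaging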
- protocol.details: switch fluorescence ratio, 500 uM ATP over buffer (Cy3 cluster intensity, sum of 5 cycles each) (fold (ratio)); higher = stronger signal-on switching upon ATP binding; sequences stand for … in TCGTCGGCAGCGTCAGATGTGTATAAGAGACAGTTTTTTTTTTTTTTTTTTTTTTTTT…TC
- test.conditions: aptamer strand: ATP DNA aptamer (quencher-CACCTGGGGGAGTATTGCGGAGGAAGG + anchor), 100 nM annealed; ATP concentration: 500 uM
measured.attribute: switch fluorescence ratio

# monomer.sequence, assay.result
rows = [
    ("CATATTATCA", 1.02),
    ("GGCGATGGGG", 0.979),
    ("GAGATTGTGT", 0.994),
    ("GTGTGATTTT", 0.992),
    ("CTCGTTCTTT", 1),
    ("TATGAAATGT", 1.01),
    ("GTTTTACGTG", 0.998),
    ("TAAAGGGGGA", 0.983),
    ("TTAGGTATCT", 1.01),
    ("GGTTCGTTGG", 0.993),
    ("GTGCAAATTG", 0.997),
    ("TAAGATAAAA", 1.02),
    ("ATAAGTGCAA", 1.06),
    ("CGATTTATGT", 0.993),
    ("GATAGTTCGT", 1.01),
    ("TTATGATTCA", 0.973),
    ("CCATGCCGGG", 0.979),
    ("TGGGTGTGCT", 1.01),
    ("TACCAGTGAT", 1),
    ("GGCCTGCCAT", 0.981),
    ("ACCGCTATGT", 1.57),
    ("ATTTATGTTC", 0.994),
    ("GACGAAGCAT", 5.33),
    ("GTCGTTCTGA", 0.993),
    ("TTTAGTGTAT", 0.991),
    ("AGAGTGTTTT", 1),
    ("ATATGGAGTT", 0.943),
    ("ATTCGGCGGA", 1.03),
    ("TCAGGAGTAA", 1.82),
    ("TGTTATATTA", 1.01),
    ("GGGGCACTGC", 1.01),
    ("TTTTTTCTTT", 1.01),
    ("GGTTGAGGAG", 1.04),
    ("TTAGCCGTTG", 1.03),
    ("TTAAGGTAAA", 1.01),
    ("GCCAGGGCTG", 1),
    ("TTATACGCGG", 0.991),
    ("TATTGTTCGC", 0.98),
    ("CGCGGGGGGC", 1.05),
    ("GATTATTTGT", 1.03),
    ("AATTTAAGGC", 0.985),
    ("TACATGTCGT", 0.996),
    ("GGGGGGCATC", 1.01),
    ("TTAGTCGACC", 0.992),
    ("CGGGGGCACC", 1.07),
    ("CTGGGTTTGG", 1),
    ("CGAGAGGGGA", 1.03),
    ("CGATAGTATA", 1.01),
    ("TGGGGCTGCC", 0.969),
    ("GCTGGATCCG", 1.07),
    ("CTTTTGGATT", 0.998),
    ("ATGTGTCAAG", 0.968),
    ("GGTTATGGGG", 0.985),
    ("ACGGTTGTTT", 1.02),
    ("TTCTAGTCTA", 0.987),
    ("TTAATATTAT", 0.978),
    ("TAAGGTCGGT", 0.966),
    ("CATGTAGTGC", 1.03),
    ("GGCATATGTA", 0.983),
    ("TAGCCGGGGT", 1.04),
    ("GCATATGATC", 1.05),
    ("AAATTTTGTT", 0.987),
    ("ACTTCAGATT", 0.995),
    ("CAATCCTATC", 1.02),
    ("CGATGCGAAG", 1.02),
    ("GGGGTTAGAG", 0.991),
]
